Literature survey of IC50 (system: Receptor tyrosine-protein kinase erbB-2 (Homo sapiens, UniProt P04626)).

**Q:** Indicate the recorded IC50 value for this compound: `CCc1ccc(Nc2nc3ccccc3n2-c2ncnc(Nc3cc(OC)c(OC)c(OC)c3)n2)cc1`
**A:** 0.804 to 4.82 µM

**Q:** Indicate the recorded IC50 value for this compound: `COc1cc(C)c(Nc2ncnc(Nc3cc(-c4ccc(C)cc4)n[nH]3)n2)cc1OC`
**A:** > 10.8 µM

**Q:** Indicate the recorded IC50 value for this compound: `C=CC(=O)N1CCOc2c1ccc1ncnc(Nc3ccc(Oc4ccccc4OCCCN(C)C)cc3)c21`
**A:** 0.05 to 0.5 µM

**Q:** Indicate the recorded IC50 value for this compound: `N#Cc1c(N2CCOCC2)nc2sc(C(=O)Nc3ccc(CN4CCOCC4)cc3)c3c2c1N(c1c(Cl)ccc2c1OCO2)C(=O)N3`
**A:** ~100 µM

**Q:** Indicate the recorded IC50 value for this compound: `COc1ccc(Nc2ncnc(Nc3cc(OC)c(OC)c(OC)c3)n2)cc1OCCN1CCOCC1`
**A:** 4.68 to 6.83 µM

**Q:** Indicate the recorded IC50 value for this compound: `O=C(/C=C/CN1CCC(CO)CC1)N1CCOc2c1ccc1ncnc(Nc3ccc(OCc4ccccn4)c(Cl)c3)c21`
**A:** ≤ 0.05 µM

**Q:** Indicate the recorded IC50 value for this compound: `c1cc(Cn2ccnn2)cc(Nc2ncnc(-n3c(Nc4ccc5[nH]ccc5c4)nc4ccccc43)n2)c1`
**A:** 0.801 to 4.8 µM

**Q:** Indicate the recorded IC50 value for this compound: `CCN(c1ccc(C)cc1)c1ncnc(Nc2cc(OC)c(OC)c(OC)c2)n1`
**A:** 1.01 to 6.07 µM

----------
Literature survey of IC50 (system: Receptor tyrosine-protein kinase erbB-2 (Homo sapiens)).

**Q:** Look up and report measured IC50 (Receptor tyrosine-protein kinase erbB-2 (Homo sapiens)) for the following compound: `COCCCCNC/C=C/C(=O)N1CCOc2c1ccc1ncnc(Nc3ccc(Oc4ccccc4F)cc3)c21`
**A:** ≤ 0.05 µM

**Q:** Look up and report measured IC50 (Receptor tyrosine-protein kinase erbB-2 (Homo sapiens)) for the following compound: `CN(C/C=C/C(=O)N1CCOc2c1ccc1ncnc(Nc3ccc(OCc4ccccn4)c(Cl)c3)c21)CCCO`
**A:** ≤ 0.05 µM

**Q:** Look up and report measured IC50 (Receptor tyrosine-protein kinase erbB-2 (Homo sapiens)) for the following compound: `CC(=O)N1CCN(C/C=C/C(=O)N2CCOc3c2ccc2ncnc(Nc4ccc(OCc5ccccn5)c(Cl)c4)c32)CC1`
**A:** ≤ 0.05 µM

**Q:** Look up and report measured IC50 (Receptor tyrosine-protein kinase erbB-2 (Homo sapiens)) for the following compound: `Nc1cccc(-c2cc3c(Oc4cccc(O)c4)ncnc3[nH]2)c1`
**A:** 0.03 µM

**Q:** Look up and report measured IC50 (Receptor tyrosine-protein kinase erbB-2 (Homo sapiens)) for the following compound: `COC1CCN(Cc2ccc(NC(=O)c3sc4ncc(C#N)c5c4c3NC(=O)N5c3c(Cl)ccc4c3OCO4)cc2)CC1`
**A:** 1.23 µM

**Q:** Look up and report measured IC50 (Receptor tyrosine-protein kinase erbB-2 (Homo sapiens)) for the following compound: `Cc1nc2sc(C(=O)Nc3ccc(CN4CCOCC4)cc3)c3c2c(c1C#N)N(c1c(Cl)ccc2c1OCO2)C(=O)N3`
**A:** > 10 µM

**Q:** Look up and report measured IC50 (Receptor tyrosine-protein kinase erbB-2 (Homo sapiens)) for the following compound: `COCCOc1ccc(Nc2ncnc(Nc3ccc4[nH]ccc4c3)n2)cc1OCCOC`
**A:** 0.888 to 5.33 µM

**Q:** Look up and report measured IC50 (Receptor tyrosine-protein kinase erbB-2 (Homo sapiens)) for the following compound: `Nc1nc2ccccc2n1-c1ncnc(Nc2cccc(Cl)c2)n1`
**A:** 1.18 to 7.11 µM

**Q:** Look up and report measured IC50 (Receptor tyrosine-protein kinase erbB-2 (Homo sapiens)) for the following compound: `COc1cc(Nc2nccc(-c3c[nH]nc3-c3ccc4c(c3)OCO4)n2)cc(OC)c1OC`
**A:** 0.006 µM

**Q:** Look up and report measured IC50 (Receptor tyrosine-protein kinase erbB-2 (Homo sapiens)) for the following compound: `Cc1ccc(COc2ccc(Nc3ncnc4ccc5c(c34)OCCN5C(=O)/C=C/CN(C)C)cc2)cc1`
**A:** ≤ 0.05 µM

**Q:** Look up and report measured IC50 (Receptor tyrosine-protein kinase erbB-2 (Homo sapiens)) for the following compound: `COc1cc(Nc2ncnc(-n3ncc(-c4ccccc4)c3N)n2)cc(OC)c1OC`
**A:** 8.34 to 10.7 µM

**Q:** Look up and report measured IC50 (Receptor tyrosine-protein kinase erbB-2 (Homo sapiens)) for the following compound: `CCNc1nc(-c2cccc(NS(=O)(=O)c3c(F)cccc3F)c2)c(-c2ccnc(Nc3cc(C)c(N4CCN(CCS(C)(=O)=O)CC4)cc3OC)n2)s1`
**A:** < 0.1 µM

**Q:** Look up and report measured IC50 (Receptor tyrosine-protein kinase erbB-2 (Homo sapiens)) for the following compound: `COc1ccc(Nc2ncnc(N(C)c3cccc(C)c3)n2)cc1OC`
**A:** 1.14 to 6.83 µM

**Q:** Look up and report measured IC50 (Receptor tyrosine-protein kinase erbB-2 (Homo sapiens)) for the following compound: `COc1cc(Nc2ncnc(-n3c(NCc4ccccc4)nc4ccccc43)n2)cc(OC)c1OC`
**A:** > 9.31 µM

**Q:** Look up and report measured IC50 (Receptor tyrosine-protein kinase erbB-2 (Homo sapiens)) for the following compound: C#CCN(Cc1cnc2nc(N)nc(N)c2n1)c1ccc(C(=O)NC(CCC(=O)O)C(=O)O)cc1OC(F)(F)F (stereo not shown)
**A:** 7.5 µM

**Q:** Look up and report measured IC50 (Receptor tyrosine-protein kinase erbB-2 (Homo sapiens)) for the following compound: `CCNc1nc(-c2cccc(OC)c2)c(-c2ccnc(Nc3ccc(OC4CCN(CCS(C)(=O)=O)CC4)c(F)c3)n2)s1`
**A:** > 1 µM
